Examples of molecules with documented viability, T/C follow.
Tested on: SUM149PT spheroids with HUVEC/MSC, viability
Assay: Anticancer human tumor SUM149PT cell line growth inhibition [GQUAD];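 further: spheroids exposed to drugs for seven days before readout; percent viability relative to DMSO vehicle control taken as 100%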
Conditions: second compound 0.0316 µM; first compound 0.0999 µM; stronger effect = lower value
Write it as a number; the unit % goes unstated.

Example molecules with recorded viability, T/C:
CC[C@@]1(O)C(=O)OCc2c1cc1n(c2=O)Cc2cc3c(CN(C)C)c(O)ccc3nc2-1 + Cc1cnc(CNC(=O)c2c(=O)c3ccc(N4CCCN(C)CC4)nc3n3c2sc2ccccc23)cn1; 36.1
CCc1c2c(nc3ccc(O)cc13)-c1cc3c(c(=O)n1C2)COC(=O)[C@]3(O)CC + Cc1[nH]c2ccc(F)cc2c1-c1nc2c3cccnc3c3ncccc3c2[nH]1; 32.4
Cc1[nH]c2ccccc2c1CCNCc1ccc(/C=C/C(=O)NO)cc1 + Cc1[nH]c2ccc(F)cc2c1-c1nc2c3cccnc3c3ncccc3c2[nH]1; 98
CC[C@@]1(O)C(=O)OCc2c1cc1n(c2=O)Cc2cc3c(CN(C)C)c(O)ccc3nc2-1 + CN(C)c1ccc(Nc2c3ccc(NC(=O)CCN4CCCC4)cc3nc3cc(NC(=O)CCN4CCCC4)ccc23)cc1; 55.9
CC[C@@]1(O)C(=O)OCc2c1cc1n(c2=O)Cc2cc3c(CN(C)C)c(O)ccc3nc2-1 + Cc1[nH]c2ccc(F)cc2c1-c1nc2c3cccnc3c3ncccc3c2[nH]1; 43.1

Now look at this entry.
Ask: Please report the measured viability, T/C for CCc1c2c(nc3ccc(O)cc13)-c1cc3c(c(=O)n1C2)COC(=O)[C@]3(O)CC + Cc1cnc(CNC(=O)c2c(=O)c3ccc(N4CCCN(C)CC4)nc3n3c2sc2ccccc23)cn1
Reply: 25.9
